Please provide measured IC50 for the entries that follow.
- Subject of test: Muscarinic receptor
- Experimental parameters: 3H-QNB radioligand, room temperature, 60 minutes; read-out: Radio receptor assay IC50
Hi! Could you send only the number? It should be in nM, unit omitted.

Problem: Fill blank: measured IC50 of the compound CC(C)=CCOc1ccc(C=C2CN(C)C3CN2C2(CCC(=O)CC2)C3)cc1 (centres unmarked) is ____.
Solution: 5.7

Problem: How about CC(C)=CCOc1ccc(C=C2CN(C)C3CN2C2(CCC(=O)C(O)C2)C3)cc1 (centres unmarked) ?
Solution: 0.13
